Recorded pIC50 values (human CYP2C19 (Homo sapiens, UniProt P33261)) are given below.
Quick note: pIC50 values are minus log10 of concentrations in mol/L.

Example entries and their recorded answers appear below.
compound="[I][Hg][I] [Mercury(II) iodide]" endpoint_value=5.98
compound="C=CCOC(=O)c1ccc(C(=O)OCC=C)c(C(=O)OCC=C)c1 [Triallyl trimellitate]" endpoint_value=6.82
compound=CCOP(=O)([O-])OCC.CCn1cc[n+](C)c1 endpoint_value=4.16
compound="Cl.Clc1ccc(C(OCCN2CCCCC2)c2ccccc2)cc1 (stereo not drawn) [Cloperastine hydrochloride]" endpoint_value=4.73
compound=CCCCCCCCCCCCCC[P+](CCCC)(CCCC)CCCC.CCCCCCCCCCCCc1ccc(S(=O)(=O)[O-])cc1 endpoint_value=4.66
compound=COc1cc(Cl)ccc1Oc1ccc(Cl)cc1Cl endpoint_value=6.14

Prompt: Data request, read-out pIC50, for CCc1ccc(C(=O)C(C)CN2CCCCC2)cc1.Cl (stereo not drawn) [Eperisone hydrochloride]
Completion: 5.33

Prompt: Also check `Clc1ccc2c(c1)Nc1ccccc1S2`
Completion: 5.11

Prompt: Also check `CCCCCCCCCCCCCC[P+](CCCCCC)(CCCCCC)CCCCCC.O=S(=O)([N-]S(=O)(=O)C(F)(F)F)C(F)(F)F`
Completion: 4.36
